- Test System: T1, recombinant human nectin-4 (human, UniProt Q96NY8 32-349)
- T1 chain: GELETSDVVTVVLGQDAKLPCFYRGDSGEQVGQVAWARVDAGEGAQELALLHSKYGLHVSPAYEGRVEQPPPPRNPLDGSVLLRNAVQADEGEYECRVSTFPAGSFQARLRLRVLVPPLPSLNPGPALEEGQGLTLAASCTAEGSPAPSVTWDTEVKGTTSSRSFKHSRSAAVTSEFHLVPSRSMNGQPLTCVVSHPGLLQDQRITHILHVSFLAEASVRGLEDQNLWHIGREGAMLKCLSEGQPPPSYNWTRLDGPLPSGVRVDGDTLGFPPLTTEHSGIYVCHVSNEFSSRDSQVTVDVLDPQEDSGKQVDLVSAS
- Protocol Details: FP
Numbered stars: 1 amine (or outer) side, 2 acyl side, 3 side chain; on linkers, the order of the positions; unused ones are H or OH. Bridge positions count the residues as written; N and C are the ends. Square brackets hold non-standard residues; d marks the D form. * marks the point of attachment. (R)‑NODAGA = O=C(O)CN1CCN(CC(=O)O)CCN([C@H](CCC(=O)*)C(=O)O)CC1; DOTA = O=C(O)CN1CCN(CC(=O)O)CCN(CC(=O)*)CCN(CC(=O)O)CC1; TATA = O=C(CC[*:1])N1CN(C(=O)CC[*:2])CN(C(=O)CC[*:3])C1; 1Nal = N[C@@H](Cc1cccc2ccccc12)C(=O)O; 2Nal = N[C@@H](Cc1ccc2ccccc2c1)C(=O)O; Hyp = O=C(O)[C@@H]1C[C@@H](O)CN1; hArg = N=C(N)NCCCC[C@H](N)C(=O)O
Each entry below carries its recorded IC50.
Property Label: IC50 (nM)

[[record]]
binder = "{(R)‑NODAGA}-CP[1Nal][dD]CM[hArg]DWSTP[Hyp]WC-NH2 (linker 1-5-15 via TATA) [1e]"
property_label = "IC50"
experimental_result = 35.6

[[record]]
binder = "{DOTA}-CP[2Nal][dD]CMRDWSTP[Hyp]WC-OH (linker 1-5-15 via TATA) [8d (N188)]"
property_label = "IC50"
experimental_result = 4220

[[record]]
binder = "{(R)‑NODAGA}-CP[2Nal][dD]CMRDWSTP[Hyp]WC-NH2 (linker 1-5-15 via TATA) [8a]"
property_label = "IC50"
experimental_result = 479

[[record]]
binder = "H-CP[1Nal][dD]CM[hArg]DWSTP[Hyp]WC-NH2 (linker 1-5-15 via TATA) [1c]"
property_label = "IC50"
experimental_result = 51.8

[[record]]
binder = "{DOTA}-CP[2Nal][dD]CMRDWSTP[Hyp]WC-NH2 (linker 1-5-15 via TATA) [8c]"
property_label = "IC50"
experimental_result = 3290

